METHOD_DESCRIPTION: budding yeast growth changes without added modifier – OD600, strain BY4716, 24 h, basal condition, primary screen (AID 1173)
EXPERIMENTAL_SETUP: S. cerevisiae BY4716 growth, OD600, 24 h; higher = more signal, called active from +8 up or from −8 down
List of z-score values.

| RECORD_SMILES | z-score |
| --- | --- |
| C=CC[C@@]1(C(=O)N2CCCCC2)N=C(c2ccc(OCCCO)cc2)O[C@@H]1c1ccccc1CN=[N+]=[N-] | -0.924 |
| COCCCNC(=O)[C@@]1(Cc2ccccc2)N=C(c2ccc(OCCCO)cc2)O[C@H]1c1ccccc1CN=[N+]=[N-] | -0.176 |
| CC(C)(C)OC(=O)CC[C@@]1(C(=O)N2CCCCC2)N=C(c2ccc(OCCCO)cc2)O[C@@H]1c1ccccc1 | -0.563 |
| NC(=O)NCC#Cc1ccc2c(c1)[C@]1(C(=O)N2)[C@H](C(=O)O)[C@H]2C(=O)O[C@H](c3ccccc3)[C@H](c3ccccc3)N2[C@@H]1c1ccc(O)cc1 | -0.0841 |
| O=C(O)[C@H]1C[C@H]2C(=O)N3CCC[C@H]3C(=O)N2[C@H]1c1ccc(O)cc1 | -0.171 |
| CC(C)C(=C=CC[C@H](O)c1ccc(CO)o1)CCO | -1.56 |

Sourced from PubChem BioAssay
